- MEASUREMENT_NOTES: in vitro
- MEASUREMENT_CONTEXT: human
ATTRIBUTE_MEASURED: CC50

Query :: Looking for the measured CC50 of Cc1ccc(C(C)C)cc1OC(=O)C[N+](C)(C)CCCCCCCCCC[N+](C)(C)CC(=O)Oc1cc(C(C)C)ccc1C , can you help?
Result :: > 120 µg/mL
